system: Staphylococcus aureus; assay: Antimicrobial activity against methicillin-sensitive Staphylococcus aureus after 24 hrs by microdilution method; type: functional, organism-based
Active and inactive are the calls of the source. No cut-off for these calls is given here.
METRIC_NAME: MIC

Below, 4 molecules whose answers are already recorded.
Nc1ncc([C@@H]2[C@@H](CNC(=O)c3ccc[nH]3)[C@H](CNC(=O)c3cc(Br)c[nH]3)[C@H]2c2cnc(N)[nH]2)[nH]1 :: inactive
Nc1ncc([C@@H]2[C@@H](CNC(=O)c3cc(Br)c[nH]3)[C@H](CNC(=O)c3cc(Br)c[nH]3)[C@H]2c2cnc(N)[nH]2)[nH]1 :: inactive
C[n+]1cnc2[nH]c(=O)n(-c3nc(N)[nH]c3[C@@H]3[C@@H](CNC(=O)c4cc(Br)c[nH]4)[C@H](CNC(=O)c4cc(Br)c[nH]4)[C@H]3c3cnc(N)[nH]3)c2c1N :: inactive
NCCC(=O)c1cccc2c1N[C@H](CNC(=O)c1cc(Br)c(Br)[nH]1)[C@@H](c1cnc(N)[nH]1)O2 :: inactive

The record that follows has no MIC shown yet.
Inquiry: Consider the molecule Nc1ncc(/C=C/CNC(=O)c2cc(Br)c(Br)[nH]2)[nH]1 and give its measured MIC.
Reply text: inactive
